Entry source: patent US12503438B2

Each item that follows carries a reported pIC50.
# Tested on: KDR (Homo sapiens)
# Sequence (P35968 20-1356): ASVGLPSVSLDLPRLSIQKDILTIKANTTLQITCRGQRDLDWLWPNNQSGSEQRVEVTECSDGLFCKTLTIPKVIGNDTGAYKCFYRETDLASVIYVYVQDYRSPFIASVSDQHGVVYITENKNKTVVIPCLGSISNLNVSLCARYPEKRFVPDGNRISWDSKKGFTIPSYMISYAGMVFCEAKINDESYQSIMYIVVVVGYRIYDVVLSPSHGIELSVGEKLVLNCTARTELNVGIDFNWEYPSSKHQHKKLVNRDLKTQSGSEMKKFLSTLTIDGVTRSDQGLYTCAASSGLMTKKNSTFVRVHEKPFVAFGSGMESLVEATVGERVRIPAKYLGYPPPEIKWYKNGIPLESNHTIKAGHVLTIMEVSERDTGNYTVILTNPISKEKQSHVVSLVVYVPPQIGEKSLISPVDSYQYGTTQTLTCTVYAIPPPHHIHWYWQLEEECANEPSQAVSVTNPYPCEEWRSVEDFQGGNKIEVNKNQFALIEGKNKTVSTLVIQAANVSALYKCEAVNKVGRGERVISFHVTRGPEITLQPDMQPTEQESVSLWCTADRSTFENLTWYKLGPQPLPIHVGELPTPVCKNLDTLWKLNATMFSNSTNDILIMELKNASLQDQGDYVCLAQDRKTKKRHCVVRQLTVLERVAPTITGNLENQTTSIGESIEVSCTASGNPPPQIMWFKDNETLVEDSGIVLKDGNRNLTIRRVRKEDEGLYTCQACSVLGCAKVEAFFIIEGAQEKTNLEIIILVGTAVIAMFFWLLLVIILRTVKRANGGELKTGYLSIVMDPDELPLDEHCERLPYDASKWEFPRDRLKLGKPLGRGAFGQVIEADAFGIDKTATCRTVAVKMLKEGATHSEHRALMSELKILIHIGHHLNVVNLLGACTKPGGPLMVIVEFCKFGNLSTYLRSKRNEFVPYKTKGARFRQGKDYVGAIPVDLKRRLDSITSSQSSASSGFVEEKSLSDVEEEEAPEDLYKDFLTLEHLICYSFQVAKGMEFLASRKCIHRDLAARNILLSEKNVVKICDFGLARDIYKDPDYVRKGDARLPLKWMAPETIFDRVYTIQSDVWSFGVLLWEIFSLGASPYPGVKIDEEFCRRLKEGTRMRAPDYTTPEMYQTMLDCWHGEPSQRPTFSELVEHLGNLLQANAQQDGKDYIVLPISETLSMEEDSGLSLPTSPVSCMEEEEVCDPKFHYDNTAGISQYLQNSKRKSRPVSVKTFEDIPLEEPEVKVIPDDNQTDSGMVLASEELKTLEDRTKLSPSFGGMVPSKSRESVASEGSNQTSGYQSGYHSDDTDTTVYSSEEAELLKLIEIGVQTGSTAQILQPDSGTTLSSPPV
# Assay overview: KDR autophosphorylation ELISA in HUVEC cells
# Type: cell-based
# Set-up: endogenous in cells; host or cells: HUVEC (Lonza #C2519A)
# Measurement conditions: cellular activity, VEGF165-stimulated, phospho-KDR ELISA
pIC50: −log10 of the molar value.

[
  {
    "Compound": "Cc1cncc(-c2ccc3c(Oc4ccc(NC(=O)C5(C(=O)Nc6ccc(F)cc6)CC5)cc4)ccnc3c2)c1 [Compound 46]",
    "pIC50": "7.00 to 8.00"
  },
  {
    "Compound": "Cc1ccc(-c2ccc3c(Oc4ccc(NC(=O)C5(C(=O)Nc6ccc(F)cc6)CC5)cc4)ccnc3c2)cn1 [Compound 37]",
    "pIC50": "7.00 to 8.00"
  },
  {
    "Compound": "Cc1noc(C)c1-c1ccc2c(Oc3ccc(NC(=O)C4(C(=O)Nc5ccc(F)cc5)CC4)cc3)ccnc2c1 [Compound 53]",
    "pIC50": "6.52 to 7.00"
  },
  {
    "Compound": "O=C(Nc1ccc(F)cc1)C1(C(=O)Nc2ccc(Oc3ccnc4cc(-c5ccc(C6CC6)nc5)ccc34)cc2)CC1 [Compound 43]",
    "pIC50": "7.00 to 8.00"
  },
  {
    "Compound": "O=C(Nc1ccc(F)cc1)C1(C(=O)Nc2ccc(Oc3ccnc4cc(-c5ccn(C6CC6)n5)ccc34)cc2)CC1 [Compound 98]",
    "pIC50": "7.00 to 8.00"
  },
  {
    "Compound": "COc1cncc(-c2ccc3c(Oc4ccc(NC(=O)C5(C(=O)Nc6ccc(F)cc6)CC5)cc4)ccnc3c2)c1 [Compound 47]",
    "pIC50": "6.52 to 7.00"
  },
  {
    "Compound": "O=C(Nc1ccc(F)cc1)C1(C(=O)Nc2ccc(Oc3ccnc4cc(-c5cnn(C6CC6)c5)ccc34)cc2)CC1 [Compound 22]",
    "pIC50": "7.00 to 8.00"
  }
]
